molecular target: T1, cyno activated protein C (cyno (monkey)); assay: ELISA, coated antigen
T1 construct: also called cyno aPC; cyno APC
This section presents binders with their documented EC50 values.
Output spec: scalar in nM, unitless text.

BINDER	VALUE REPORTED
Hu1573-11 (antibody, V domains shown, Humanized IgG, human gamma 1 / kappa constant regions by vectors pCP-hCg1 and pCP-hck; also called H1573VH.1D + H1573Vk.2B) VH: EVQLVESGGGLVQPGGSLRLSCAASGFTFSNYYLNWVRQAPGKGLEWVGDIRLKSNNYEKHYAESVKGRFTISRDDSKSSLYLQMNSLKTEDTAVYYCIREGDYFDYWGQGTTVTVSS VL: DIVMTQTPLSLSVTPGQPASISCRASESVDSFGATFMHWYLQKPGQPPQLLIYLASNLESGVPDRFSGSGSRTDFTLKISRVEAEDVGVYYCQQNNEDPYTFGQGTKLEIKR	1.47
Hu1573-5 (antibody, V domains shown, Humanized IgG, human gamma 1 / kappa constant regions by vectors pCP-hCg1 and pCP-hck; also called H1573VH.1B + H1573Vk.2B) VH: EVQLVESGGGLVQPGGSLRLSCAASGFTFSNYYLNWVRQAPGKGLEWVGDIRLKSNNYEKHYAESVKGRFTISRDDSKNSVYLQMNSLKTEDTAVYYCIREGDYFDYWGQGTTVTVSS VL: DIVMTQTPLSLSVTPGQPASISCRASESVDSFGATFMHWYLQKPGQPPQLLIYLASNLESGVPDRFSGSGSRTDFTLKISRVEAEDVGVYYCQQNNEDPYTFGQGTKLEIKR	1.03
Hu1573-15 (antibody, V domains shown, Humanized IgG, human gamma 1 / kappa constant regions by vectors pCP-hCg1 and pCP-hck; also called H1573VH.1F + H1573Vk.2) VH: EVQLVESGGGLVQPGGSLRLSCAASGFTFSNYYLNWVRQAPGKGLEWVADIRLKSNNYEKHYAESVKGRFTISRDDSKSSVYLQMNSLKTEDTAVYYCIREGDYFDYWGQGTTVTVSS VL: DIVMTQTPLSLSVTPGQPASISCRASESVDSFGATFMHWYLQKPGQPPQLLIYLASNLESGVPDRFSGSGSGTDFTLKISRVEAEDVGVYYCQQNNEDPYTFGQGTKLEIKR	0.889

So for Hu1573-17 (antibody, V domains shown, Humanized IgG, human gamma 1 / kappa constant regions by vectors pCP-hCg1 and pCP-hck; also called H1573VH.1F + H1573Vk.2B) VH: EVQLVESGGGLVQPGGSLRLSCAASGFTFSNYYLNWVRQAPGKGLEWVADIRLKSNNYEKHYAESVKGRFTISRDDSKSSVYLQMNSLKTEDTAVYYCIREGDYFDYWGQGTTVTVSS VL: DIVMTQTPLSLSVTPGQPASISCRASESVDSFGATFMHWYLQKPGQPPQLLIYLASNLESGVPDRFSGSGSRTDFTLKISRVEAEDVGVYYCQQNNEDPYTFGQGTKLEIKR , the logged EC50 turned out to be 1.21
